System: 616215-338-R-J1-PDC complex spheroid viability;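 note: spheroids exposed to agents for seven days before viability readout; 100% = DMSO vehicle control viability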
Assay: Anticancer human tumor 616215-338-R-J1-PDC patient-derived colon adenocarcinoma cell line growth inhibition [RAS]
Conditions: second compound 0.1 µM; first compound 1 µM; hits give low values
From the text: RAS pathway inhibitors in Combinations in Complex Spheroids A high-throughput screen of multi-cell type tumor spheroids was designed to identify active combinations of RAS pathway inhibitors and targeted small molecules. Complex spheroids include a stromal component modeled by human endothelial cells (HUVEC) and fibroblasts modeled by human mesenchymal stem cells (MSCs). […] Compounds. […] If the clinical Cmax for an agent had not been determined, the highest concentration tested was 10 microM. […]
Can you tell me viability, T/C for the items I'm about to list?
Answers are plain numbers, in %.

CC1(O)CCCC1n1c(=O)c(C(F)F)cc2cnc(NC3CCN(S(C)(=O)=O)CC3)nc21 (stereo not given) + C=CC(=O)N1CCN(c2nc(OCC3CCCN3C)nc3c(F)c(-c4nc(N)cc(C)c4C(F)(F)F)c(Cl)cc23)C(C)C1 : 55.4
CC1(O)CCCC1n1c(=O)c(C(F)F)cc2cnc(NC3CCN(S(C)(=O)=O)CC3)nc21 (stereo not given) + C#Cc1c(F)ccc2cc(O)cc(-c3ncc4c(N5CC6CCC(C5)N6)nc(OCC56CCCN5CC(F)C6)nc4c3F)c12 : 46.8
CCC(CC)c1cc(NC2CCC(N)C2)n2nccc2n1 (stereo not given) + C=CC(=O)N1CCN(c2nc(OCC3CCCN3C)nc3c(F)c(-c4nc(N)cc(C)c4C(F)(F)F)c(Cl)cc23)C(C)C1 : 104
CC(=O)OC12COC1CC(O)C1(C)C(=O)C(O)C3=C(C)C(OC(=O)C(O)C(NC(=O)OC(C)(C)C)c4ccccc4)CC(O)(C(OC(=O)c4ccccc4)C21)C3(C)C (stereo not given) + C#Cc1c(F)ccc2cc(O)cc(-c3ncc4c(N5CC6CCC(C5)N6)nc(OCC56CCCN5CC(F)C6)nc4c3F)c12 : 18
CC(Nc1ccc2c(c1)OCCn1cc(N3C(=O)OCC3C(F)F)nc1-2)C(N)=O (stereo not given) + C#Cc1c(F)ccc2cc(O)cc(-c3ncc4c(N5CC6CCC(C5)N6)nc(OCC56CCCN5CC(F)C6)nc4c3F)c12 : 106
O=C(c1ccc(F)c(F)c1Nc1ccc(I)cc1F)N1CC(O)([C@@H]2CCCCN2)C1 + C#Cc1c(F)ccc2cc(O)cc(-c3ncc4c(N5CC6CCC(C5)N6)nc(OCC56CCCN5CC(F)C6)nc4c3F)c12 : 6.39

Lab note: each compound below needs its viability, T/C filled in.
1. C[C@@H](NC(=O)c1ncnc(N)c1Cl)c1ncc(C(=O)Nc2cc(C(F)(F)F)c(Cl)cn2)s1 + C#Cc1c(F)ccc2cc(O)cc(-c3ncc4c(N5CC6CCC(C5)N6)nc(OCC56CCCN5CC(F)C6)nc4c3F)c12
2. CCN1CCN(Cc2ccc(Nc3ncc(F)c(-c4cc(F)c5nc(C)n(C(C)C)c5c4)n3)nc2)CC1 + C#Cc1c(F)ccc2cc(O)cc(-c3ncc4c(N5CC6CCC(C5)N6)nc(OCC56CCCN5CC(F)C6)nc4c3F)c12
3. Cc1nc(N2CCC3(CC2)COC(C)C3N)c(CO)nc1Sc1ccnc(N)c1Cl (stereo not given) + C=CC(=O)N1CCN(c2nc(OCC3CCCN3C)nc3c(F)c(-c4nc(N)cc(C)c4C(F)(F)F)c(Cl)cc23)C(C)C1

Reply text:
[109, 50.8, 119]

For the 4 compounds below, give their viability, T/C values.
1. CC(=O)OC12COC1CC(O)C1(C)C(=O)C(O)C3=C(C)C(OC(=O)C(O)C(NC(=O)OC(C)(C)C)c4ccccc4)CC(O)(C(OC(=O)c4ccccc4)C21)C3(C)C (stereo not given) + C=CC(=O)N1CCN(c2nc(OCC3CCCN3C)nc3c(F)c(-c4nc(N)cc(C)c4C(F)(F)F)c(Cl)cc23)C(C)C1
2. Nc1ccn(C2OC(CO)C(O)C2(F)F)c(=O)n1 (stereo not given) + C#Cc1c(F)ccc2cc(O)cc(-c3ncc4c(N5CC6CCC(C5)N6)nc(OCC56CCCN5CC(F)C6)nc4c3F)c12
3. C=CC(=O)Nc1cc(Nc2nccc(-c3cn(C)c4ccccc34)n2)c(OC)cc1N(C)CCN(C)C + C=CC(=O)N1CCN(c2nc(OCC3CCCN3C)nc3c(F)c(-c4nc(N)cc(C)c4C(F)(F)F)c(Cl)cc23)C(C)C1
4. C[C@@H](NC(=O)c1ncnc(N)c1Cl)c1ncc(C(=O)Nc2cc(C(F)(F)F)c(Cl)cn2)s1 + C=CC(=O)N1CCN(c2nc(OCC3CCCN3C)nc3c(F)c(-c4nc(N)cc(C)c4C(F)(F)F)c(Cl)cc23)C(C)C1

Reply text:
1. 16.4
2. 14.6
3. 74.2
4. 114

Count: 2. Required value per item: viability, T/C.
1. CCN1CCN(Cc2ccc(Nc3ncc(F)c(-c4cc(F)c5nc(C)n(C(C)C)c5c4)n3)nc2)CC1 + C=CC(=O)N1CCN(c2nc(OCC3CCCN3C)nc3c(F)c(-c4nc(N)cc(C)c4C(F)(F)F)c(Cl)cc23)C(C)C1
2. CCC(CC)c1cc(NC2CCC(N)C2)n2nccc2n1 (stereo not given) + C#Cc1c(F)ccc2cc(O)cc(-c3ncc4c(N5CC6CCC(C5)N6)nc(OCC56CCCN5CC(F)C6)nc4c3F)c12

Reply text:
1. 64.2
2. 99.9
